# Test system: SW-620 colon
# runDescription: NCI-60 one-dose screen, 48 h
# particulars: 10 µM unless noted
The panel holds about 83,000 compounds, 20% with a hit somewhere; the sample as a whole holds those more often. Calls of active or inactive are those of the source. How the source made its calls: active means growth percent below 10; inactive means the rest.
Give one outcome, nothing more. List: class 1 (active), class 0 (inactive)

Outcome? CC12CCC3C(CC=C4CC(O)CCC43C)C1C/C(=C\N1CCOCC1)C2=O (stereo unspecified)
class 0

Record request — test call for c1ccc([As]=[As]c2ccccc2)cc1 (stereo unspecified)
class 1

Could you kindly confirm the outcome this assay logged for "C/C(=C\C(=O)O[C@H]1[C@@H]2[C@H](C)CC[C@H]2[C@]2(C)O[C@@]1(C1CCCCC1)C[C@H]2OC(=O)CO)c1ccccc1" ?
class 0

Could you kindly confirm the outcome this assay logged for Cc1ccc(N)cc1[As]=[As]c1cc(N)ccc1C (stereo unspecified) ?
class 1

Recorded test call requested for "CCN(CC)c1ccc(C=C2C(=O)NC(=S)NC2=O)cc1"
class 0

Could you check what this test reported for "O=C(Nc1ccc(S(=O)(=O)F)cc1)Oc1ccccc1" ?
class 0

***
Recorded call for "CC(=O)O[C@@H]1C2=C(C)C3(CC3)[C@@](C)(O)C(=O)C2=C[C@@]1(C)CO" ?
class 1

I would be grateful if you could indicate the recorded call for COc1cc(C2CC(=O)Nc3nc(N)[se]c32)cc(OC)c1OC (stereo unspecified) .
class 0

Can you look up the reported call for "O=C1NC(=S)NC(=O)C1=Cc1ccccc1" for me?
class 0

Assay result, entry "COc1cc(CNCCc2ccc(Cl)cc2)cc(OC)c1O" — outcome?
class 0

Could you check what this test reported for CCCCCCCCCCOc1ccc(C(=O)Oc2ccc(CSP3(=O)OCC4OC(n5ccc(=O)[nH]c5=O)C(F)C4OP(=O)(O)OCC4OC(n5cnc6c(N)ncnc65)C(F)C4O3)cc2)cc1 (stereo unspecified) ?
class 0

Query: recorded result category for CCCCCCCC(=O)OCC/C=C/C1OC1C1OC(=O)/C=C\C=C\c2nc(oc2C)/C=C(/C)CCC2OC2C1OC(=O)NC(C)=O (stereo unspecified) in this test
class 1

Call for entry "CN1CC2CCC(C1)C2=O" :
class 0

How did this test come out for O=C1C=CC(=O)C2C1C1(Cl)C(Cl)=C(Cl)C2(Cl)C1(Cl)Cl (stereo unspecified) ?
class 0

Which result was noted for this compound in the test: "COc1ccc(-c2ccc(OC)c(OC)c2OC)cc1"
class 0

Query: recorded result category for OC1CCCCC1N1CCC(c2ccccc2)CC1 (stereo unspecified) in this test
class 0

* * *

# System: HL-60(TB) leukemia
# runDescription: NCI-60 one-dose screen, 48 h (100 = growth as untreated, 0 = no growth, -100 = all killed)
# particulars: 10 µM unless noted
Compounds without any hit were thinned out: in the full panel of roughly 83,000, 20% have a hit.
// class assignment uses growth with these ranges: Low: < 20%; Medium: ≥ 20% and < 90%; High: ≥ 90%

Band for the recorded growth of "C=C(Cl)[C@@](Cl)(CBr)CC[C@@H](Br)C(C)(C)Cl" ?
Low

Next:
# bin label for "COc1cc(Cn2ccc3c2-c2oncc2CC3)cc(OC)c1"
Low

Category of "C#C[C@@]1(O)[C@@H](CO)O[C@@H](n2cc(Cl)c3c(N)ncnc32)[C@@H]1O" , please.
Low

The origin of these recorded values is PubChem BioAssay (NCI).
